# credit: PubChem BioAssay (NCI)

# Tested on: HL-60(TB) leukemia
# Test method notes: NCI-60 one-dose screen, 48 h
# Study conditions: 10 µM unless noted
This is part of a sample that, as a whole, favours compounds with a hit. Of some 83,000 tested, about 20% had one in any assay. Active and inactive are the calls of the source. The calls were made as follows: active = growth percent below 10; inactive = the rest.
# valid calls are Yes for active, No for inactive; nothing else

stdin: Hi team, can someone confirm the assay call for CCCCCCCCn1cc(C2=C(c3coc4ccc(OC)cc34)C(=O)NC2=O)c2ccccc21 ?
stdout: No

stdin: Query: recorded result category for CCC(C)CC(N)O (stereo not drawn) in this test
stdout: No

stdin: Answer briefly: the call reported for COc1cc(/C=C2\C(=O)N(c3c(Cl)cccc3Cl)c3ccccc32)cc(OC)c1OCCCCCCn1c2ccccc2c(=O)c2ccccc21 in this assay.
stdout: No

stdin: // return assay outcome for CN(C)CCC(=O)C1CC1
stdout: No

stdin: Could you kindly confirm the outcome this assay logged for COC(=O)c1c(C)nc(C)c2c1C(=O)C=C(NCc1ccccc1)C2=O ?
stdout: No

stdin: What did this assay record as the result for O=C(NCCO)Nc1ccc(-c2nc(N3CCOCC3)c3cccn3n2)cc1 ?
stdout: No

stdin: Hi team, can someone confirm the assay call for Cc1nc2cc(Nc3nc(NCCO)nc(Nc4ccc(F)cc4)n3)ccc2n1Cc1ccccc1 ?
stdout: Yes

stdin: Which outcome was entered for the compound COc1ccc2c(OCc3nnc4ccc(-c5ccccc5)nn34)ccnc2c1 in this test?
stdout: No

====

# Tested on: K-562 leukemia
# Test method notes: NCI-60 one-dose screen, 48 h (100 = growth as untreated, 0 = no growth, -100 = all killed)
# Study conditions: 10 µM unless noted
About 83,000 compounds went through this panel and 20% of them were active in at least one assay; those are over-represented in the sample as a whole. The source made the active and inactive calls. How the source made its calls: active means growth percent below 10; inactive means the rest.
Result type: growth

stdin: Return reported growth; argument: CO[C@@H]([CH2][Hg][S]C#N)[C@@H]([CH2][Hg][S]C#N)OC
stdout: 46.5% (inactive)

stdin: Entry O=C(CC1(O)C(=O)Nc2ccc(F)cc21)c1ccc(C(=O)NCC2CCC3(CC2)OOC2(CCCCC2)OO3)cc1 (centres undefined) has what growth?
stdout: 14.9% (inactive)

stdin: Quick one: growth for CC12CCC(=O)C=C1C(O)CC1C2CCC2(C)C(O)CCC12 (centres undefined) ?
stdout: 105% (inactive)

stdin: Item CC(C)CCC[C@@H](C)[C@H]1CC[C@H]2[C@@H]3CC=C4C[C@@H](OC(=O)Cc5ccc(N(CCCl)CCCl)cc5)CC[C@]4(C)[C@H]3CC[C@]12C has what recorded growth?
stdout: 90.4% (inactive)

stdin: Fill blank: measured growth of the compound CCC[CH2][Sn]1([CH2]CCC)[O]C(=O)c2cccc([N+](=O)[O-])c2C(=O)[O]1 is ____.
stdout: -12.3% (active)

stdin: # growth lookup, item CC1(C)N=C(N)N=C(N)N1c1ccc(CCCCc2ccc(S(=O)(=O)F)cc2)cc1
stdout: 19.7% (inactive)

stdin: Which measured growth value corresponds to Cc1ccc(C[As+](c2ccccc2)(c2ccccc2)c2ccccc2)cc1 ?
stdout: 9.47% (active)

stdin: Reported growth for O=C1NC(=O)C(O)(C2(O)C(=O)NC(=O)NC2=O)C(=O)N1 : what is it?
stdout: 87.9% (inactive)

stdin: What value of growth has been reported for the following compound? COc1ccc(C2SCC(=O)Nc3c2c(C)nn3-c2nc3ccc(C)cc3s2)cc1O (centres undefined)
stdout: 9.45% (active)

stdin: Using the record for C=CCN1C(=O)C(CC)(CCC(C)C)C(=O)NC1=S (centres undefined) , report its growth.
stdout: 99.8% (inactive)

stdin: Quick one: growth for COc1ccc2c(c1)NC1=C(C(=O)OC1)C2c1cc(OC)c(OC)c(OC)c1 (centres undefined) ?
stdout: 7.31% (active)

stdin: growth for C[CH2][Pb]([CH2]C)([CH2]C)[O]C(=O)COc1ccccc1 ?
stdout: 4.92% (active)

stdin: Record request: growth value, item COc1ccc(C(c2ccc(OC)cc2)C(Cl)(Cl)Cl)cc1
stdout: 65.7% (inactive)

stdin: Consider the compound CCCCOC(=O)c1ccccc1C(=O)O.CCCCOC(=O)c1ccccc1C(=O)O.[Cu+2] and give its measured growth.
stdout: 96.2% (inactive)

stdin: Form field: reported growth of O=[N+]([O-])c1ccc(/C=C/C=C/c2ccc(S(=O)(=O)F)cc2)c(Cl)c1
stdout: 96.1% (inactive)

stdin: Requested read-out: growth. Entry: O=C1NC(=O)C(CN2C(=O)C3(c4ccccc42)[C@H](Cl)C(=O)N3c2ccccc2)C(=O)N1 (some centres undefined)
stdout: 65.5% (inactive)

stdin: Dear colleague, I am looking for the recorded growth of the following compound: O=C(O)c1cccc(CCl)c1
stdout: 101% (inactive)

stdin: Tell me the measured growth of Nc1ccc(N)c2c1Oc1ccccc1O2 , please.
stdout: 92.1% (inactive)

stdin: Which growth value is on record for CCCCNCCc1ccccn1 ?
stdout: 90.4% (inactive)
